- assayed.system: PIM-1 (Homo sapiens, UniProt P11309)
- Sequence (P11309 whole entry, species assumed): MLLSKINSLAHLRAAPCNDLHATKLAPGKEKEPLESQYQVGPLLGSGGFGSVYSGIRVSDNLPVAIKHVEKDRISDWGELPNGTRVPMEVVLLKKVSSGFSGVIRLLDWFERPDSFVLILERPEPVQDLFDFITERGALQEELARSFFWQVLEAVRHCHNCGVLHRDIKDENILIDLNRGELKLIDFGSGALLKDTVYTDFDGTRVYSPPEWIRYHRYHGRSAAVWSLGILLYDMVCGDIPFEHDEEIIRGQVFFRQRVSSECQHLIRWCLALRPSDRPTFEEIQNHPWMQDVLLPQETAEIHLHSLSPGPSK
Counter-ions that a name gives are not always drawn.
measurement.type: IC50 (nM)

[[record]]
molecule = "COc1c(C2CC2)ccc2ccc(-c3nnc4ccc([C@@H](N5CC[C@H](N)C5)C(F)(F)F)cn34)nc12 [Example 69, dihydrochloride]"
measurement_type = "IC50"
measured_result = 0.21

[[record]]
molecule = "COc1cccc2ccc(-c3nnc4ccc(C(N5CC[C@H](O)C5)C(F)(F)F)cn34)nc12 (stereo partly shown) [Example 7]"
measurement_type = "IC50"
measured_result = 3.94


[a] N[C@H]1CCN([C@H](c2ccc3nnc(-c4ccc5cc(F)c(O)cc5n4)n3c2)C(F)(F)F)C1 [Example 157, hydrochloride]
[b] COC[C@@H](C)Oc1cc2nc(-c3nnc4ccc([C@@H](N5CC[C@H](N)C5)C(F)(F)F)cn34)ccc2cc1F [Example 160, dihydrochloride]
*Q* Kindly identify which of a and b has the larger recorded IC50 value. Mark your selection by writing its label.
*A* a
